- TARGET OF ASSAY: UniProtKB Q16236
- Sequence (Q16236 whole entry): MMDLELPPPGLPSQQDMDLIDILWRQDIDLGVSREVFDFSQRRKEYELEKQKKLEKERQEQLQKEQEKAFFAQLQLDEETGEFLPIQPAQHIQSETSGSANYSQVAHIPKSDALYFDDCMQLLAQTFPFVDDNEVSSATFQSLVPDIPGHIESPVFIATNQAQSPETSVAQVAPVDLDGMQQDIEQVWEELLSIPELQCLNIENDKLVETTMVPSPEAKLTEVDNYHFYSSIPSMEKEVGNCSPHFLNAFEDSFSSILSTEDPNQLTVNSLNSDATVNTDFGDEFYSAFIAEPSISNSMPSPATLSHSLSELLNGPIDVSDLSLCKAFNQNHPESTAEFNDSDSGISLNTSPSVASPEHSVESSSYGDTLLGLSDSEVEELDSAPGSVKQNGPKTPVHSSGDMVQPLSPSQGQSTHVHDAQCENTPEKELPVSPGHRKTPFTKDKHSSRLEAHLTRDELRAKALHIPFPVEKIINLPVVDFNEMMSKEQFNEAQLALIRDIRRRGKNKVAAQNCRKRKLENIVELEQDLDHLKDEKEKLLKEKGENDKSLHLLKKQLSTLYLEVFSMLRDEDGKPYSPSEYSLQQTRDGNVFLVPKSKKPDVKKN
- EXPERIMENT DESCRIPTION: Induction of Nrf2-mediated NQO1 gene expression in human BEAS2B cells at 10 uM after 16 hrs by RT-PCR analysis relative to untreated control
- Format: functional, cell-based
QUANTITY MEASURED: fold change (FC)

Known results for molecules:
ENTRY SMILES: COc1ccc(OC)c(C(=O)/C=C/c2ccc(C(F)(F)F)cc2)c1
fold change (FC): 4

ENTRY SMILES: COc1ccc(C(=O)/C=C/c2ccc(C(F)(F)F)cc2)cc1OC
fold change (FC): 2.7

ENTRY SMILES: COc1cccc(C(=O)/C=C/c2ccccc2C(F)(F)F)c1
fold change (FC): 4.3

ENTRY SMILES: COc1ccc(C(=O)/C=C/c2ccccc2[N+](=O)[O-])c(OC)c1
fold change (FC): 3.3

ENTRY SMILES: COc1ccc(C(=O)/C=C/c2ccccc2)c(OC)c1
fold change (FC): 2.8

ENTRY SMILES: COc1ccc(C(=O)/C=C/c2ccccc2)cc1OC
fold change (FC): 2.5

// lookup fold change (FC) for COc1ccc(C(=O)/C=C/c2cccc(C(F)(F)F)c2)c(OC)c1 4
